Where do these numbers come from? They come from patent US20130123271A1.

assay: Solubility in HPbCD 7% pH 5; assay type: physicochemical; conditions: HPbCD 7% solution, aqueous with cosolvent or surfactant or cyclodextrin, read-out: Solubility HPbCD 7% pH 5 (mg/ml) measured
Decide by solubility: equal to or exceeding 2 mg/mL means Condition met, less means Condition not met.

Some solved entries appear below for comparison.
OCc1cc(Nc2ncc3cc(-c4cc(O)ccc4Cl)ccc3n2)ccn1 [Compound 43] = Condition not met
OCc1cc(Nc2nc3ccc(-c4cc(O)ccc4Cl)cn3n2)ccn1 [compound 13] = Condition met
OCc1cc(CO)cc(Nc2ncc3cc(-c4cc(O)ccc4Cl)ccc3n2)c1 [compound 16] = Condition not met
Cc1cc(Nc2nc3ccc(-c4cc(O)ccc4Cl)cn3n2)cc(N2CCN(CCO)CC2)c1 [Compound 28] = Condition met
OCCn1cnc2cc(Nc3ncc4cc(-c5cc(O)ccc5Cl)ccc4n3)ccc21 [Compound 45] = Condition met

For the next question, use this compound.
### Prompt // inclusive: solubility at least 2 mg/mL? input: Oc1ccc(Cl)c(-c2ccc3nc(Nc4ccc(OCCN5CCCC5)nc4)nn3c2)c1 [Compound 25]
### Response Condition met
